Ref: patent US20200095192A1

test.summary: calcium chelation value of crude ligand
Format: physicochemical
Design: unit not given here
test.conditions: crude of ligand 2-1 to ligand 2-9 without purification
# calcium chelation value values compiled below
Give your answer as a number; write no unit.

Field: example entries. Status: answers known.
* O=C(O)CCC(=O)OCCN(CCOC(=O)CCC(=O)O)C(=O)CCC(=O)O [ligand 2-9] | 85
* O=C(O)CCC(=O)OCCN(CCOC(=O)CCC(=O)O)C(=O)CCC(=O)O [ligand 2-2] | 8
* O=C(O)CCC(=O)OCCN(CCOC(=O)CCC(=O)O)C(=O)CCC(=O)O [ligand 2-1] | 5
* O=C(O)CCC(=O)OCCN(CCOC(=O)CCC(=O)O)C(=O)CCC(=O)O [ligand 2-7] | 42
* O=C(O)CCC(=O)OCCN(CCOC(=O)CCC(=O)O)C(=O)CCC(=O)O [ligand 2-8] | 83
* O=C(O)CCC(=O)OCCN(CCOC(=O)CCC(=O)O)C(=O)CCC(=O)O [ligand 2-5] | 45

Data point: O=C(O)CCC(=O)OCCN(CCOC(=O)CCC(=O)O)C(=O)CCC(=O)O [ligand 2-6] ; calcium chelation value = 87

Data point: O=C(O)CCC(=O)OCCN(CCOC(=O)CCC(=O)O)C(=O)CCC(=O)O [ligand 2-4] ; calcium chelation value = 21

Data point: O=C(O)CCC(=O)OCCN(CCOC(=O)CCC(=O)O)C(=O)CCC(=O)O [ligand 2-3] ; calcium chelation value = 55

###

test.summary: calcium chelation value of crude ligand
Format: physicochemical
Parameters: unit not given here
test.conditions: crude of ligand 3-1 to ligand 3-7 without purification
measurement.kind: calcium chelation value
Give your answer as a number; write no unit.

* O=C(O)c1ccccc1C(=O)OCCN(CCOC(=O)c1ccccc1C(=O)O)C(=O)c1ccccc1C(=O)O [ligand 3-2] | 15
* O=C(O)c1ccccc1C(=O)OCCN(CCOC(=O)c1ccccc1C(=O)O)C(=O)c1ccccc1C(=O)O [ligand 3-4] | 70

Let's switch to this molecule now.
Data point: O=C(O)c1ccccc1C(=O)OCCN(CCOC(=O)c1ccccc1C(=O)O)C(=O)c1ccccc1C(=O)O [ligand 3-6] ; calcium chelation value = 88

###

test.summary: calcium chelation value of crude ligand
Assay type: physicochemical
Set-up: unit not given here
test.conditions: crude of ligand 1-1 to ligand 1-11 without purification
Excerpt: The diethanolamine derivatives and maleic anhydride can be synthesized by the reaction according to equation (I). […] The amount of precursors being used was monitored. […] After being washed, the obtained product was dried under vacuum and analyzed for its property using ^1H NMR spectroscopy and liquid chromatography mass spectrometry (LC/MS) technique. […]
Hi, to clarify the labels: Yes covers calcium chelation value from 20 upward, No covers anything below 20.

# example entries with known answers
• O=C(O)/C=C/C(=O)OCCN(CCOC(=O)/C=C/C(=O)O)C(=O)/C=C/C(=O)O [ligand 1-1] = No
• O=C(O)/C=C/C(=O)OCCN(CCOC(=O)/C=C/C(=O)O)C(=O)/C=C/C(=O)O [ligand 1-3] = No
• O=C(O)/C=C/C(=O)OCCN(CCOC(=O)/C=C/C(=O)O)C(=O)/C=C/C(=O)O [ligand 1-5] = No
• O=C(O)/C=C/C(=O)OCCN(CCOC(=O)/C=C/C(=O)O)C(=O)/C=C/C(=O)O [ligand 1-7] = Yes
• O=C(O)/C=C/C(=O)OCCN(CCOC(=O)/C=C/C(=O)O)C(=O)/C=C/C(=O)O [ligand 1-4] = No

// switching to the query compound
Record O=C(O)/C=C/C(=O)OCCN(CCOC(=O)/C=C/C(=O)O)C(=O)/C=C/C(=O)O [ligand 1-2] ; criterion: calcium chelation value no lower than 20. Met? No
